Reported logP values for the following molecules.
method: logP determination by HPLC on a reversed-phase column (C 18), EEC Directive 79/831 Annex V.A8
Type: physicochemical
measurement_parameters: method marked [b] in Table 1

Worked cases, logP given:
CC(=NOCC1(CON=C(C)c2cccc(C)n2)CC(C(C)C)=NO1)c1cccc(C)n1 (centres unmarked) [compound 597]	3.28^[b]
Cc1cc(C)nc(/C(N)=N/OCc2ccc(CO/N=C(\N)c3nc(C)cc(C)n3)cc2)n1 [compound 702]	2.11^[b]
CC(=NOCc1cccc(CON=C(C)c2ccccn2)c1)c1ccccn1 [compound 731]	3.72^[b]
CC(=NOc1ncnc(ON=C(C)c2cccc(C)n2)c1F)c1cccc(C)n1 [compound 727]	3.13^[b]

q: Find the measured logP of CC(=NOCC(CON=C(C)c1nc(C)ccc1C)c1ccccc1)c1nc(C)ccc1C (single isomer, unassigned) [compound 755] and report it.
a: 3.62^[b]

q: Find the measured logP of Cc1nc(/C(N)=N/OCc2cccc(CO/N=C(\N)c3nc(C)c4c(n3)CCCC4)c2)nc2c1CCCC2 [compound 712] and report it.
a: 3.09^[b]

q: Find the measured logP of CC#Cc1cccc(C(C)=NOCC(C)CON=C(C)c2cccc(C#CC)n2)n1 (centres unmarked) [Compound 686] and report it.
a: 5.65^[b]

q: Find the measured logP of CCC(=NOCC1(CON=C(CC)c2cccc(C)n2)CC(C(C)(C)C)=NO1)c1cccc(C)n1 (centres unmarked) [compound 610] and report it.
a: 5.21^[b]
